Assignment: determine reported bioavailability for the given compounds.
assay: Comparative oral bioavailability in the rat (Example 19); format: in vivo, male Wistar rats; conditions: male, Wistar, plasma, po, 5 mg/kg, oral gavage, 0.5% NaCMC and 0.5% Tween 80 in water, relative to iv bolus 2 mg/kg
Write the value in % as a bare number.

Qu. Quick one: bioavailability of `CNC(=O)c1cc(Oc2ccc(NC(=O)Nc3ccc(Cl)c(C(F)(F)F)c3)c(F)c2)ccn1.O=S(=O)(O)c1ccccc1` ?
Ans. 10

Qu. Quick one: `CNC(=O)c1cc(Oc2ccc(NC(=O)Nc3ccc(Cl)c(C(F)(F)F)c3)c(F)c2)ccn1.CS(=O)(=O)O`
Ans. 10

Qu. Would you kindly repeat that for `CNC(=O)c1cc(Oc2ccc(NC(=O)Nc3ccc(Cl)c(C(F)(F)F)c3)c(F)c2)ccn1.Cl` ?
Ans. 7

Qu. Another compound to check: `CNC(=O)c1cc(Oc2ccc(NC(=O)Nc3ccc(Cl)c(C(F)(F)F)c3)c(F)c2)ccn1`
Ans. 13
